target: SMARCA2 (Homo sapiens, UniProt P51531); assay: HiBit assay in engineered HT1080 CRISPR knock-in cell, 6 hrs (B series), SMARCA2; type: cell-based; conditions: HT-1080, HT1080 CRISPR knock-in cells, 6 hrs incubation; read-out: SMARC A2 HT1080 HiBit Dmax (%)
Sequence (P51531 whole entry): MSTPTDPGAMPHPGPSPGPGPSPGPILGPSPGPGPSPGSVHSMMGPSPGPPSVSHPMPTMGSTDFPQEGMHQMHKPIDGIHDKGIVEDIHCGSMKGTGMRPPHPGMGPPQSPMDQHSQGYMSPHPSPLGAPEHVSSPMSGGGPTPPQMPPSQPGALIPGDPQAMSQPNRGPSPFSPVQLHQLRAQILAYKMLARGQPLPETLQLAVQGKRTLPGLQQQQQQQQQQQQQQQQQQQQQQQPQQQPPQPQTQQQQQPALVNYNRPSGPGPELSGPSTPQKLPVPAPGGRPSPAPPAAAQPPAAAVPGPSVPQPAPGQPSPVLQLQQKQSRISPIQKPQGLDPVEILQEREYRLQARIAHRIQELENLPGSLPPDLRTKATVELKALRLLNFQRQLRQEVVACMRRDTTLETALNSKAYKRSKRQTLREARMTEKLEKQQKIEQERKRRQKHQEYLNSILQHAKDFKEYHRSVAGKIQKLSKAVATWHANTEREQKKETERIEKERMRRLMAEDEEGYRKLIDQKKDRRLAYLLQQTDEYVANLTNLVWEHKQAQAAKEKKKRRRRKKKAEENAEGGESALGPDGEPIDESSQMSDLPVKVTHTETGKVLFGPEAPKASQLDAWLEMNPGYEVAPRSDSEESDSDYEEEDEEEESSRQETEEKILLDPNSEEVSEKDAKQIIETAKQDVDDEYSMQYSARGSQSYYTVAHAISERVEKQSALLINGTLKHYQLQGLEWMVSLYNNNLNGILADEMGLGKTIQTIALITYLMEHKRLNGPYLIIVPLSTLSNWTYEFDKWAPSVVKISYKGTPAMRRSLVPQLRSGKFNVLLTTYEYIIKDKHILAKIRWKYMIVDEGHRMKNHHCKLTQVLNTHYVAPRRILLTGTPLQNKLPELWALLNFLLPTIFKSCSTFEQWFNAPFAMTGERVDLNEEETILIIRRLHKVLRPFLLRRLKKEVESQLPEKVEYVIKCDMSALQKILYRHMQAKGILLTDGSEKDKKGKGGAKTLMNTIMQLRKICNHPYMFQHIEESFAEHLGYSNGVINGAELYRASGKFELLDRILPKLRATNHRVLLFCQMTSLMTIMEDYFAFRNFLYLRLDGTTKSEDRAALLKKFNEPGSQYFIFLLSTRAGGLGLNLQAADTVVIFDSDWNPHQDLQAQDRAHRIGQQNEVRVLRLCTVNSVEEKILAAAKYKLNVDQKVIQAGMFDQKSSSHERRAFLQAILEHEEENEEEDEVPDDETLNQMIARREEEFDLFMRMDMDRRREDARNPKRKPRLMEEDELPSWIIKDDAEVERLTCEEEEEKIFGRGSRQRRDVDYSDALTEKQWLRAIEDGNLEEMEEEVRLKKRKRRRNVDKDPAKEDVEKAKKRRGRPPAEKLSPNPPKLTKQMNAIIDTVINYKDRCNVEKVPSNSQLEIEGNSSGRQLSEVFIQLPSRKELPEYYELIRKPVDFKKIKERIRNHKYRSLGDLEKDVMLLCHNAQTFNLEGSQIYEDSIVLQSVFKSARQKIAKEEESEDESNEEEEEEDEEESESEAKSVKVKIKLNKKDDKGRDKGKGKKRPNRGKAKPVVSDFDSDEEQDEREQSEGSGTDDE
Each record here notes measured Dmax.
property.name: Dmax

1) Cc1ncsc1-c1ccc([C@H](CN2CCOCC2)NC(=O)[C@@H]2C[C@@H](O)CN2C(=O)[C@@H](n2cc([C@H]3CC[C@H](S(=O)(=O)N4CCC(c5ccc6c(c5)-n5c(nc(=O)c7c(Cl)cccc75)C65CCCCC5)CC4)CC3)nn2)C(C)(C)C)cc1: 70 to 90%
2) Cc1cc(C(C(=O)N2C[C@H](O)C[C@H]2C(=O)N[C@@H](CCCCCN2CCC(c3ccc4c(c3)C(C)(C)c3nc(=O)c5c(Cl)cccc5n3-4)CC2)c2ccc(-c3scnc3C)cc2)C(C)C)on1 (stereo partly drawn): > 90%
3) Cc1ncsc1-c1ccc([C@H](C)NC(=O)[C@@H]2C[C@@H](O)CN2C(=O)[C@H](C(C)C)n2cc(CCCCCN3CCC(c4ccc5c(c4)-n4c(nc(=O)c6c(Cl)cccc64)C5(C)C)CC3)nn2)cc1: > 90%

====

biological target: SMARCA4 (Homo sapiens, UniProt P51532); assay: HiBit assay in engineered HT1080 CRISPR knock-in cell, 6 hrs (B series), SMARCA4; assay type: cell-based; details: HT-1080, HT1080 CRISPR knock-in cells, 6 hrs incubation; read-out: SMARC A4 HT1080 HiBit Dmax(%)
Sequence (P51532 whole entry): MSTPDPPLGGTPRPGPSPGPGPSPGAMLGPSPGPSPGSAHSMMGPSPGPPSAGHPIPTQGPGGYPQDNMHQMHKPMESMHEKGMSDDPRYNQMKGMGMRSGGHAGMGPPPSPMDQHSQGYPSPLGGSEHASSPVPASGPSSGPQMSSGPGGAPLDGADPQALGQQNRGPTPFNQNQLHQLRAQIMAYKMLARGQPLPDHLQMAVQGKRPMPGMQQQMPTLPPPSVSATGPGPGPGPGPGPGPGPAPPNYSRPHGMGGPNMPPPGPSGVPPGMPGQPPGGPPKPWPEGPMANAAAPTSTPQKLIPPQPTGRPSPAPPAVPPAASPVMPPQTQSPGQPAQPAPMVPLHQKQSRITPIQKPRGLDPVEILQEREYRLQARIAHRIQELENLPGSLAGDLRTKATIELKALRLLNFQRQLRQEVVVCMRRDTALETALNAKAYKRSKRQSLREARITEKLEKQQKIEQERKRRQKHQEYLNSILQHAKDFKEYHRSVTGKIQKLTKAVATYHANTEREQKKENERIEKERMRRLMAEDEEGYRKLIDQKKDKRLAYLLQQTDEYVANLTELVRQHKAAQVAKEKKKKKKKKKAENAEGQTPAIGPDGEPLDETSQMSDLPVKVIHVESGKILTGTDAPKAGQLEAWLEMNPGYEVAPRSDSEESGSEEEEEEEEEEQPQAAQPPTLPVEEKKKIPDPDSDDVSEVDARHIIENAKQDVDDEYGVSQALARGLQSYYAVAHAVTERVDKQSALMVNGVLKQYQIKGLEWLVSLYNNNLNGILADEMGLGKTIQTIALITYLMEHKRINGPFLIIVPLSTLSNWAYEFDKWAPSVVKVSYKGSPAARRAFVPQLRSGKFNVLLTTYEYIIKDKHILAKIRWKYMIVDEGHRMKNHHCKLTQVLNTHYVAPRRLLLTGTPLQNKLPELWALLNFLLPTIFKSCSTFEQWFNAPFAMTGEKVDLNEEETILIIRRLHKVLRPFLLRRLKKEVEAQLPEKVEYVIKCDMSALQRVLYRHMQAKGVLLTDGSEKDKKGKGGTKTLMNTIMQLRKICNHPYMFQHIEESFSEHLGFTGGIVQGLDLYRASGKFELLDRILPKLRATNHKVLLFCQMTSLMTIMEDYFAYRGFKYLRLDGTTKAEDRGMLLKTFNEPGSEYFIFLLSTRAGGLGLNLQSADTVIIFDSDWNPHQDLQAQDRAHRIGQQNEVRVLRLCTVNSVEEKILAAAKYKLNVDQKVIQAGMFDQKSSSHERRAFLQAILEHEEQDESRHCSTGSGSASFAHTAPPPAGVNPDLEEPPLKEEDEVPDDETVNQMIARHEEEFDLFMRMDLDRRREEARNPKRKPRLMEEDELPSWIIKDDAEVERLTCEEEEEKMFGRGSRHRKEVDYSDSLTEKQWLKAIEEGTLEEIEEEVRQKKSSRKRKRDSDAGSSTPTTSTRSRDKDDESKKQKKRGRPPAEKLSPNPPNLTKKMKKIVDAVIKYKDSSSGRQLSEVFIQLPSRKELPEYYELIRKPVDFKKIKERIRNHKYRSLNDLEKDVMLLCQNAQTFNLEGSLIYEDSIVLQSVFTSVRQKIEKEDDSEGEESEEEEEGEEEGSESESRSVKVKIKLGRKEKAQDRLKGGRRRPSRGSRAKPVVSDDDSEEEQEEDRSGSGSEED
We begin with a simple list: items and their reported Dmax.
property.name: Dmax

1. Cc1ncsc1-c1ccc([C@H](C)NC(=O)[C@@H]2C[C@@H](O)CN2C(=O)[C@H](C(C)C)n2cc([C@H]3CC[C@H](CN4CCC(c5cccc6c5C(C)(C)c5nc(=O)c7c(Cl)cccc7n5-6)CC4)CC3)nn2)cc1: > 90%
2. Cc1ncsc1-c1ccc([C@H](C)NC(=O)[C@@H]2C[C@@H](O)CN2C(=O)[C@@H](NC(=O)CCCCn2cc(-c3ccc4c(c3)-n3c(nc(=O)c5c(Cl)cccc53)C4(C)C)cn2)C(C)(C)C)cc1: < 50%
3. Cc1ncsc1-c1ccc2c(c1)CCC[C@@H]2NC(=O)[C@@H]1C[C@@H](O)CN1C(=O)[C@@H](n1cc([C@H]2CC[C@H](CN3CCC(c4ccc5c(c4)-n4c(nc(=O)c6c(Cl)cccc64)C5(C)C)CC3)CC2)nn1)C(C)(C)C: 50 to 69%
4. Cc1ncsc1-c1ccc([C@H](C)NC(=O)[C@@H]2C[C@@H](O)CN2C(=O)[C@H](C(C)C)n2cc(C3CCC(c4cccc5c4C(C)(C)c4nc(=O)c6c(Cl)cccc6n4-5)CC3)nn2)cc1 (some centres unmarked): < 50%
5. Cc1ncsc1-c1ccc([C@H](C)NC(=O)[C@@H]2C[C@@H](O)CN2C(=O)[C@@H](NC(=O)CCCn2cc(-c3ccc4c(c3)-n3c(nc(=O)c5c(Cl)cccc53)C4(C)C)cn2)C(C)(C)C)cc1: < 50%

====

molecular target: UniProt:P51531; test: HiBit assay in engineered HT1080 CRISPR knock-in cell, 6 hrs (B series), SMARCA2; assay type: cell-based; conditions: HT-1080, HT1080 CRISPR knock-in cells, 6 hrs incubation; read-out: SMARC A2 HT1080 HiBit Dmax (%)
Overview of reported Dmax across a group of compounds:
property.name: Dmax

1) Cc1ncsc1-c1ccc([C@H](C)NC(=O)[C@@H]2C[C@@H](O)CN2C(=O)[C@H](C(C)C)n2cc(C3CCC(N4CCC(c5cccc6c5C(C)(C)c5nc(=O)c7c(Cl)cccc7n5-6)CC4)CC3)nn2)cc1 (stereo partly shown): 70 to 90%
2) Cc1ncsc1-c1ccc([C@H](C)NC(=O)[C@@H]2C[C@@H](O)CN2C(=O)[C@H](C(C)C)n2cc(C3CCN(CCN4CCC(c5ccc6c(c5)-n5c(nc(=O)c7c(Cl)cccc75)C6(C)C)CC4)CC3)nn2)cc1: > 90%
3) Cc1ncsc1-c1ccc([C@H](C)NC(=O)[C@@H]2C[C@@H](O)CN2C(=O)[C@@H](c2cc(OCCCCN3CCC(c4ccc5c(c4)-n4c(nc(=O)c6c(Cl)cccc64)C5(C)C)CC3)no2)C(C)C)cc1: > 90%
4) Cc1cc(C(C(=O)N2C[C@H](O)C[C@H]2C(=O)N[C@@H](C)c2ccc(-c3scnc3C#CCOCCCN3CCC(c4cccc5c4C(C)(C)c4nc(=O)c6c(Cl)cccc6n4-5)CC3)cc2)C(C)C)on1 (stereo partly shown): 70 to 90%

====

Listed here: items and their measured DC50.
Target: SMARCA4 (Homo sapiens, UniProt P51532)
Assay: HiBit assay in engineered HT1080 CRISPR knock-in cell, 6 hrs (B series), SMARCA4
Type: cell-based
Conditions: HT1080 CRISPR knock-in cells, 6 hrs incubation; read-out: SMARC A4 HT1080 HiBit DC50
Description: The HiBit assay was performed using engineered HT1080 CRISPR knock-in cell utilizing the Nano-Glo HiBiT Lytic Detection System from Promega, Cat #N3040. Compounds were transferred, 25 nL DMSO or test compounds (final DMSO @ 0.1%) to intermediate plates (Corning3570) using ECHO550. […] After briefly centrifugation (2000 rpm 1 mins), plate was read on Envision (Ultrasensitive luminescence model).
property.name: DC50

1. Cc1ncsc1-c1ccc([C@H](C)NC(=O)[C@@H]2C[C@@H](O)CN2C(=O)[C@H](C(C)C)n2cc(C3CCC(N4CCC(c5cccc6c5C(C)(C)c5nc(=O)c7c(Cl)cccc7n5-6)CC4)CC3)nn2)cc1 (some centres unmarked): 100 to 500 nM
2. Cc1ncsc1-c1ccc([C@H](C)NC(=O)[C@@H]2C[C@@H](O)CN2C(=O)[C@@H](n2cc(C3CC4(C3)CC(N3CCC(c5ccc6c(c5)-n5c(nc(=O)c7c(Cl)cccc75)C6(C)C)CC3)C4)nn2)C(C)(C)C)cc1 (some centres unmarked): < 100 nM
3. Cc1ncsc1-c1ccc([C@H](C)NC(=O)[C@@H]2C[C@@H](O)CN2C(=O)[C@@H](NC(=O)CC2CCC(N3CCC(c4ccc5c(c4)-n4c(nc(=O)c6c(Cl)cccc64)C5(C)C)CC3)CC2)C(C)(C)C)cc1 (some centres unmarked): 100 to 500 nM
4. Cc1ncsc1-c1ccc([C@H](C)NC(=O)[C@@H]2C[C@@H](O)CN2C(=O)[C@@H](NC(=O)CN2CCC(c3ccc4c(c3)C(C)(C)c3nc(=O)c5c(Cl)cccc5n3-4)CC2)C(C)(C)C)cc1: < 100 nM
5. Cc1ncsc1-c1ccc([C@H](CCCCCN2CCC(c3ccc4c(c3)-n3c(nc(=O)c5c(Cl)cccc53)C4(C)C)CC2)NC(=O)[C@@H]2C[C@@H](O)CN2C(=O)[C@@H](NC(=O)C2(F)CC2)C(C)(C)C)cc1: < 100 nM
6. Cc1ncsc1-c1ccc([C@H](C)NC(=O)[C@@H]2C[C@@H](O)CN2C(=O)[C@@H](c2cc(OCCCN3CCC(c4ccc5c(c4)C(C)(C)c4nc(=O)c6c(Cl)cccc6n4-5)CC3)no2)C(C)C)cc1: < 100 nM
7. Cc1cc([C@H](C(=O)N2C[C@H](O)C[C@H]2C(=O)N[C@@H](C)c2ccc(-c3scnc3C(=O)NCCCCOCCN3CCC(c4ccc5c(c4)-n4c(nc(=O)c6c(Cl)cccc64)C5(C)C)CC3)cc2)C(C)C)on1: 501 to 1000 nM
8. Cc1ncsc1-c1ccc([C@H](C)NC(=O)[C@@H]2C[C@@H](O)CN2C(=O)[C@@H](n2cc([C@H](C)N3CCC(c4ccc5c(c4)-n4c(nc(=O)c6c(Cl)cccc64)C5(C)C)CC3)nn2)C(C)(C)C)cc1: 501 to 1000 nM
9. C#Cc1ccc([C@H](C)NC(=O)[C@@H]2C[C@@H](O)CN2C(=O)[C@H](C(C)C)n2cc([C@H]3CC[C@H](CN4CCC(c5ccc6c(c5)-n5c(nc(=O)c7c(Cl)cccc75)C6(C)C)CC4)CC3)nn2)cc1: < 100 nM
10. Cc1ncsc1-c1ccc2c(c1)CC[C@@H]2NC(=O)[C@@H]1C[C@@H](O)CN1C(=O)[C@@H](n1cc([C@H]2CC[C@H](CN3CCC(c4ccc5c(c4)-n4c(nc(=O)c6c(Cl)cccc64)C5(C)C)CC3)CC2)nn1)C(C)(C)C: 100 to 500 nM
11. Cc1ncsc1-c1ccc([C@H](C)NC(=O)[C@@H]2C[C@@H](O)CN2C(=O)[C@@H](c2cc(OCCCn3cc(-c4ccc5c(c4)C(C)(C)c4nc(=O)c6c(Cl)cccc6n4-5)cn3)no2)C(C)C)cc1: > 1000 nM
12. Cc1ncsc1-c1ccc([C@H](C)NC(=O)[C@@H]2C[C@@H](O)CN2C(=O)[C@@H](c2cc(OC3CCC(CN4CCC(c5ccc6c(c5)-n5c(nc(=O)c7c(Cl)cccc75)C6(C)C)CC4)CC3)no2)C(C)C)cc1 (some centres unmarked): < 100 nM
13. Cc1ncsc1-c1ccc([C@H](C)NC(=O)C2C[C@@H](O)CN2C(=O)[C@@H](c2cc(OCCCCN3CCC(c4cccc5c4C(C)(C)c4nc(=O)c6c(Cl)cccc6n4-5)CC3)no2)C(C)C)cc1 (stereo in doubt): 100 to 500 nM
14. Cc1ncsc1-c1ccc([C@H](CN2CCOCC2)NC(=O)[C@@H]2C[C@@H](O)CN2C(=O)[C@H](c2cc(N3CCC(c4ccc5c(c4)C(C)(C)c4nc(=O)c6c(Cl)cccc6n4-5)CC3)no2)C(C)C)cc1: 100 to 500 nM
15. Cc1ncsc1-c1ccc(C(CN2CCOCC2)NC(=O)[C@@H]2C[C@@H](O)CN2C(=O)[C@H](c2cc(N3CCC(CN4CCN(c5ccc6c(c5)-n5c(nc(=O)c7c(Cl)cccc75)C65CCCCC5)CC4)CC3)no2)C(C)C)cc1 (stereo in doubt): < 100 nM
16. C[C@H](NC(=O)[C@@H]1C[C@@H](O)CN1C(=O)[C@@H](n1cc([C@H]2CC[C@H](CN3CCC(c4ccc5c(c4)-n4c(nc(=O)c6c(Cl)cccc64)C5(C)C)CC3)CC2)nn1)C(C)(C)C)c1ccc(-c2scnc2C#N)cc1: 100 to 500 nM
17. Cc1ncsc1-c1ccc([C@H](C)NC(=O)[C@@H]2C[C@@H](O)CN2C(=O)[C@@H](c2cc(OCCN3CCC(c4ccc5c(c4)-n4c(nc(=O)c6c(Cl)cccc64)C5(C)C)CC3)no2)C(C)C)cc1: < 100 nM
